Attribution: patent US20260008768A1

target-of-assay: UniProt:Q96P20
assay-name: Scintillation Proximity (SPA) NLRP3 Assay, displacement of 3H-MCC950
Type: binding
particulars: Table B, activity class; displacement of 3H-MCC950 from human NLRP3
property-label: IC50

Request: // fetch IC50; item: C[C@@H]1CCN(c2nnn[nH]2)C[C@@H](NC(=O)N(C)c2ccc(C(F)(F)F)cc2F)C1 (single isomer, unassigned) [13B*] ; system: UniProt:Q96P20
Response: 1 to 10 µM

Request: // fetch IC50; item: C[C@H]1CCN(c2nnn[nH]2)C[C@@H](NC(=O)N(C)c2ccc(OC(F)F)cc2)C1 (single isomer, unassigned) [11D*] ; system: UniProt:Q96P20
Response: 1 to 10 µM

More entries:
Request: // fetch IC50; item: C[C@H]1C[C@@H](NC(=O)N(C)c2ccc(OC(F)(F)F)c(OC(F)F)c2)[C@@H]2CC[C@H]1N2c1nnn[nH]1 (single isomer, unassigned) [63C*] ; system: UniProt:Q96P20
Response: 50 to 100 µM

###

target-of-assay: human NLRP3 (Homo sapiens)
Sequence (Q96P20 whole entry): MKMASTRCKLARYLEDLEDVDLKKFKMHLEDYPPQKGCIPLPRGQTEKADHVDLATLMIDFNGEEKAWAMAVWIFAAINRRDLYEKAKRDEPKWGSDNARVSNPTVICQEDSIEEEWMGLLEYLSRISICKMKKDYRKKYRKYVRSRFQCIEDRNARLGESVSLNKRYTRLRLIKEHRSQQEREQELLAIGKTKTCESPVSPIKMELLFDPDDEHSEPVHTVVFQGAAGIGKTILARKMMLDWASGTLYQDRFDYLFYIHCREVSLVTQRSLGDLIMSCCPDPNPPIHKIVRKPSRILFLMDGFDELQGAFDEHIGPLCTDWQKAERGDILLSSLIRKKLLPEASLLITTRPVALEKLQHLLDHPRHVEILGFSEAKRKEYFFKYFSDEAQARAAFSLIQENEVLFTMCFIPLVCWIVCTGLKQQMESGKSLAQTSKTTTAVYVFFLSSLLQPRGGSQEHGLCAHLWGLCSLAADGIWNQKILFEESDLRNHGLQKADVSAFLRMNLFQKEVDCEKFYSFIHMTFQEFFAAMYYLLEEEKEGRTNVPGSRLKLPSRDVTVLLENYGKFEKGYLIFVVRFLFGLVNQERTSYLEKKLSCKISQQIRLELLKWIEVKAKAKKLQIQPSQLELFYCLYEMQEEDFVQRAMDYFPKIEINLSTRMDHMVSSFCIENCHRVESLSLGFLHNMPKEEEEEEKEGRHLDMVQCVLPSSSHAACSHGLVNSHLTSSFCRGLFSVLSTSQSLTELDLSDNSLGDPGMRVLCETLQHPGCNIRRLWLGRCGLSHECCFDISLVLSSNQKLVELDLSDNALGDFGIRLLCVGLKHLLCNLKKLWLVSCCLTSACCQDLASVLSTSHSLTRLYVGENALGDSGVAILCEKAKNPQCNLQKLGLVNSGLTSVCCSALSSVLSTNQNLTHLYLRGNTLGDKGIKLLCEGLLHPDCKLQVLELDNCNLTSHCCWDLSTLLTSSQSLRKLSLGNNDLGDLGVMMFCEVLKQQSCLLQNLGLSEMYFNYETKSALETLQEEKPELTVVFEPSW
assay-name: Scintillation Proximity (SPA) NLRP3 Assay, displacement of 3H-MCC950
Assay type: binding
particulars: Table B, activity class; displacement of 3H-MCC950 from human NLRP3
pIC50: −log10 of the molar value.
property-label: pIC50

Request: // fetch pIC50; item: C[C@@H]1C[C@H](NC(=O)N(C)c2ccc(OC(F)F)c(F)c2)[C@H]2CC[C@@H]1N2c1nnn[nH]1 (single isomer, unassigned) [52B*] ; system: human NLRP3 (Homo sapiens)
Response: < 4.00

Request: // fetch pIC50; item: C[C@H]1CCN(c2nnn[nH]2)C[C@H](NC(=O)N(C)c2ccc(Cl)cc2Cl)C1 (single isomer, unassigned) [7C*] ; system: human NLRP3 (Homo sapiens)
Response: 4.00 to 4.30

Request: // fetch pIC50; item: C[C@@H]1CCN(c2nnn[nH]2)C[C@H](NC(=O)N(C)c2ccc(C(F)F)c(F)c2)C1 (single isomer, unassigned) [22A*] ; system: human NLRP3 (Homo sapiens)
Response: > 6.00

Request: // fetch pIC50; item: C[C@H]1CCN(c2nnn[nH]2)C[C@@H](NC(=O)N(C)c2ccc(OC(F)F)cc2F)C1 (single isomer, unassigned) [17D*] ; system: human NLRP3 (Homo sapiens)
Response: < 4.00

Request: // fetch pIC50; item: C[C@H]1C[C@@H](NC(=O)N(C)c2ccc(OC(F)(F)F)c(F)c2F)[C@@H]2CC[C@H]1N2c1nnn[nH]1 (single isomer, unassigned) [59C*] ; system: human NLRP3 (Homo sapiens)
Response: < 4.00

Request: // fetch pIC50; item: C[C@@H]1CCN(c2nnn[nH]2)C[C@H](NC(=O)N(C)c2ccc(OC(F)F)c(F)c2)C1 (single isomer, unassigned) [15A*] ; system: human NLRP3 (Homo sapiens)
Response: > 6.00

More entries:
Request: // fetch pIC50; item: C[C@H]1CCN(c2nnn[nH]2)C[C@H](NC(=O)N(C)c2ccc(OC(F)F)cc2)C1 (single isomer, unassigned) [11C*] ; system: human NLRP3 (Homo sapiens)
Response: 4.00 to 4.30

Request: // fetch pIC50; item: C[C@@H]1CCN(c2nnn[nH]2)C[C@@H](NC(=O)N(C)c2ccc(Cl)cc2)C1 (single isomer, unassigned) [4B*] ; system: human NLRP3 (Homo sapiens)
Response: 5.00 to 6.00

Request: // fetch pIC50; item: C[C@H]1C[C@@H](NC(=O)N(C)c2c(F)cc(OC(F)(F)F)cc2F)[C@@H]2CC[C@H]1N2c1nnn[nH]1 (single isomer, unassigned) [62C*] ; system: human NLRP3 (Homo sapiens)
Response: 4.00 to 4.30

Request: // fetch pIC50; item: C[C@H]1C[C@H](NC(=O)N(C)c2ccc(C3CC3)cc2)[C@@H]2CC[C@H]1N2c1nnn[nH]1 (single isomer, unassigned) [46D*] ; system: human NLRP3 (Homo sapiens)
Response: 4.30 to 5.00

Request: // fetch pIC50; item: C[C@H]1CCN(c2nnn[nH]2)C[C@@H](NC(=O)N(C)c2ccc(Cl)cn2)C1 (single isomer, unassigned) [28D*] ; system: human NLRP3 (Homo sapiens)
Response: 4.30 to 5.00

Request: // fetch pIC50; item: C[C@@H]1CCN(c2nnn[nH]2)C[C@@H](NC(=O)N(C)c2ccc(OC(F)F)c(F)c2F)C1 (single isomer, unassigned) [40B*] ; system: human NLRP3 (Homo sapiens)
Response: 5.00 to 6.00

Request: // fetch pIC50; item: C[C@H]1CCN(c2nnn[nH]2)C[C@H](NC(=O)N(C)c2ccc(OC(F)(F)F)cc2)C1 (single isomer, unassigned) [10C*] ; system: human NLRP3 (Homo sapiens)
Response: < 4.00
